- TESTED_SYSTEM: IKK signalsome (stimulus-inducible IκB kinase complex) immunopurified from TNFα-stimulated HeLa cells (human)
- Sequence (chain, as listed by the source, chain 1 of 3): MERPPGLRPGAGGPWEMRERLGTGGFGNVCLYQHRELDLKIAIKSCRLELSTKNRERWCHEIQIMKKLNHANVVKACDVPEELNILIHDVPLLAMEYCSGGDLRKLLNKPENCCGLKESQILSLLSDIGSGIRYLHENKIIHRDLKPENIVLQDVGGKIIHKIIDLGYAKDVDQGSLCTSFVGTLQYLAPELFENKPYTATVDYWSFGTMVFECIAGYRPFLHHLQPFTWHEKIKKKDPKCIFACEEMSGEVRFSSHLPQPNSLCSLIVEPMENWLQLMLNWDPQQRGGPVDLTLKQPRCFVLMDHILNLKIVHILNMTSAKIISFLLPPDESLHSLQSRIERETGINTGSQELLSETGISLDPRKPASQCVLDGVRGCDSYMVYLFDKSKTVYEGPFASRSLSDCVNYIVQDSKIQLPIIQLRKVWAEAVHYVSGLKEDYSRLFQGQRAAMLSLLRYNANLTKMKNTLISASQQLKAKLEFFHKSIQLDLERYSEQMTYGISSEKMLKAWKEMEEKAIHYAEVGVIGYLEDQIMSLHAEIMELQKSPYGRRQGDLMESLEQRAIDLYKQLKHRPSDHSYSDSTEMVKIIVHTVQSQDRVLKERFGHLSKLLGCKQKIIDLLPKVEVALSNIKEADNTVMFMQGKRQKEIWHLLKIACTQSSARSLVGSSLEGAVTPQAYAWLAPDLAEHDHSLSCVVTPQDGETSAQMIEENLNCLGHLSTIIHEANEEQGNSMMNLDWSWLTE
- Sequence (chain, as listed by the source, chain 2 of 3): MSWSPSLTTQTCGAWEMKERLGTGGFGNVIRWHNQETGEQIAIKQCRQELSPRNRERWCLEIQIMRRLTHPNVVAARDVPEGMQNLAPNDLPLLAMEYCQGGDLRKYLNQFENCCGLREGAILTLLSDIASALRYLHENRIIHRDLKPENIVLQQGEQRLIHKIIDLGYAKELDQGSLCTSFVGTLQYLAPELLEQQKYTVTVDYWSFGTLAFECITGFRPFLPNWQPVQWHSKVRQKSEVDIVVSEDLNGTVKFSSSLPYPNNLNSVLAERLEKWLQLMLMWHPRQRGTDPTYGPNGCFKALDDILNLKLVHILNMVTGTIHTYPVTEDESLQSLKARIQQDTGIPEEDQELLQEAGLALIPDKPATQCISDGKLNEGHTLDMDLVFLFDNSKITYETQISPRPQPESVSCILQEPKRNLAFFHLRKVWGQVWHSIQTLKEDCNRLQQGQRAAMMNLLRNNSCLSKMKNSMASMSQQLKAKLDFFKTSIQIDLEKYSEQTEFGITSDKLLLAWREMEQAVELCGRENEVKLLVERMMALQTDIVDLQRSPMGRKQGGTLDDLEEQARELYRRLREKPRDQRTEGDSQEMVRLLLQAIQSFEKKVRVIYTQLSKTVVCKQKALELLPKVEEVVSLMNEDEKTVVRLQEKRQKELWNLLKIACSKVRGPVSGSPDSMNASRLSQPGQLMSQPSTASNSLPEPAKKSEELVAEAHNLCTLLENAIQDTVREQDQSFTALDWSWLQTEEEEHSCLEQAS
- Sequence (chain, as listed by the source, chain 3 of 3): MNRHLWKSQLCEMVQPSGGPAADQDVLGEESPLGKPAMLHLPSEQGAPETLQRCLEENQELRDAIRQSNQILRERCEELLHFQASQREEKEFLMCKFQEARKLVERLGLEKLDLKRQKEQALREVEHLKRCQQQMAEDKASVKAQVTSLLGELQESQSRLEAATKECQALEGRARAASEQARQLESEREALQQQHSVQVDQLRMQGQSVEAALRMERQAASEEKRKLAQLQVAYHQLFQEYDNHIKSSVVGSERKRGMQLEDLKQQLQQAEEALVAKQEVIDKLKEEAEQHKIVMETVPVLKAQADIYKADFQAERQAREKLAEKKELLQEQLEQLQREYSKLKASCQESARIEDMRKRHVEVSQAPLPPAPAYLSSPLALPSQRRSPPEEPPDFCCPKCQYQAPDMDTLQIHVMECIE
- ASSAY: product inhibition of immunopurified IKK signalsome; 32P incorporation into GST-IκBα (1-54), TCA precipitation, Dixon analysis
Square brackets hold non-standard residues; d marks the D form. Ends that are not written are not given here. pS = N[C@@H](COP(=O)(O)O)C(=O)O

BINDER	Ki, µM
CKKERLLDDRHD[pS]GLD[pS]MKDEE (The phosphorylated forms are described as the same peptide chemically phosphorylated; also called P32, 36 peptide)	14
